Attribution: paper PMC9911399

Consider the following binders; for each one, report its binding signal.
Biological target: T1, RBFOX1 RRM RbFoxmut (Fox-RRM*) (Homo sapiens, UniProt Q9NWB1 109-208, R118D;E147R;N151S;E152T)
T1 sequence: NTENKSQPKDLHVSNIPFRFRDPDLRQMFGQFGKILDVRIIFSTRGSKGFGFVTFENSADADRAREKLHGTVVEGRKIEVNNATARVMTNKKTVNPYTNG
Test: EMSA; HiTS-Eq, 1 nM pool, 10 min; buffer printed only for the single-RNA assays: 10 mM Tris pH 7.5, 150 mM NaCl, 3.4 mM EDTA, 0.001% NP-40, 30 C
Settings: tags: His6 N-terminal (pET28a); label: 5' 32P
In all, about 16,000 sequences were measured (“ka relative to ugcaugu”: median about 0.096, highest 2% from about 0.35 on). Shown is part of a subset that was picked to be rich in the highest values.

Previously resolved entries follow.
GCAUAUG (DNA:RNA) RNA: GGGAGACCGGAAUUCAGAUUGUCCGCAUAUGUUAAAUCCCGUCGUAGCCACCA DNA 1: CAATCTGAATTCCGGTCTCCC DNA 2: TGGTGGCTACGACGGGATT : 0.197 KA relative to UGCAUGU
GCACAUG (DNA:RNA) RNA: GGGAGACCGGAAUUCAGAUUGUCCGCACAUGUUAAAUCCCGUCGUAGCCACCA DNA 1: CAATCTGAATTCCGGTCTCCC DNA 2: TGGTGGCTACGACGGGATT : 0.128 KA relative to UGCAUGU
GCGCGCA (DNA:RNA) RNA: GGGAGACCGGAAUUCAGAUUGUCCGCGCGCAUUAAAUCCCGUCGUAGCCACCA DNA 1: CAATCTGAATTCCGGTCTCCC DNA 2: TGGTGGCTACGACGGGATT : 0.13 KA relative to UGCAUGU

Next:
Q: Fill in: binding signal of CCUUAUC (DNA:RNA) RNA: GGGAGACCGGAAUUCAGAUUGUCCCCUUAUCUUAAAUCCCGUCGUAGCCACCA DNA 1: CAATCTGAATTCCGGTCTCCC DNA 2: TGGTGGCTACGACGGGATT is ___
A: 0.0522 KA relative to UGCAUGU
